# Measured Target: T1, cynomolgus BLyS (full length, arginine to histidine at position 132) on CHO-K1 cells (cynomolgus, UniProt Q9Y275 1-285 (human entry))
# T1 construct: also called cyno BLyS; CHO-K1 cynoBLyS
# T1 chain: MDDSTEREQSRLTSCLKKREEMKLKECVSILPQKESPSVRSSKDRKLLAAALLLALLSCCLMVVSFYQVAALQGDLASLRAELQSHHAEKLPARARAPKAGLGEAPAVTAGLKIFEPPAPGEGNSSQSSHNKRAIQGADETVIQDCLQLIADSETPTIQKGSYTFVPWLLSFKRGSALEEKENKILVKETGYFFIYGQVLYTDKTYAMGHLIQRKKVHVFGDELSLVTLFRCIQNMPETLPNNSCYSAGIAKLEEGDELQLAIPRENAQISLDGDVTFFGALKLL
# Method Description: flow cytometry, CHO-K1 cynoBLyS cells, antibody 0.534 nM
Recorded measurements of MFI, one per entry
Numbers only here, please. The scale is MFI.

Data point: L1D12 (antibody, V domains shown, From a human naive scFv phage library; also called human BLyS antibody L1D12; LID12) VH: QVQLVQSGGGLVQPGGSLRLSCAASGFTVSSNYMSWVRQAPGKGLEWVSVIYSGGSTYYADSVKGRFTISRDNSKNTLYLQMNSLRAEDTAVYYCARGFHDILTGYGMDVWGQGTTVTVSS VL: SSELTQDPAVSVALGQTVRITCQGDSLRNYYAGWYQQKPGQAPVLVIYGKNNRPSGIPDRFSGSSSGNTASLTITGTQAEDEADYYCSSRDNSGTHLVEFGGGTKLTVL ; MFI = 900

Data point: 67A2E1D10 (antibody, V domains shown, Mouse hybridoma monoclonal antibody purified on Protein G) VH: EVQLQQSGAELVKPGASVKLSCTASGFNIKNYYMHWVKQRTEEGLEWIGRIDPEDGETKYAPKFQAKATITADTSSNTAYLQLSSLTSEDTAVYFCARKGYYGNYGAWFAYWGQGTLVTVSA VL: DIQMTQSPASLSVSVGETVTITCRASEDLYSNLAWYQQKQGKSPQLLVYAATFLADGVPSRFSGSGSGTQYSLKINSLQSEDFGNYYCQHFWGTPPTFGGGTKLEIK ; MFI = 213

Data point: 35E6F7C3 (antibody, V domains shown, Mouse hybridoma monoclonal antibody purified on Protein G) VH: EVQLQQSGAELVKPGASVKLSCTAAGFNIQDTYIHWVKQRPEQGLEWIGRIDPANANTVYDPKFQGKATITADTSSNTAYLQVSSLTSEDTAVYYCASPVITAGFAYWGQGTLVTVSA VL: QIVLTQSPAIMSASPGEKVTMTCGASSSVNYVHWYQQKSGTSPKRWIYDTSKLASGVPARFSGSGSGTSYSLTISSMEAEDAATYYCQQWTRSPLTFGAGTKVELK ; MFI = 501

Data point: 8E7D9C7F5 (antibody, V domains shown, Mouse hybridoma monoclonal antibody purified on Protein G) VH: QVQLQQSGVELARPGASVKLSCKASGYTFTSYGISWVKQRTGQALEWIGEIYPRSGNTYYNEKFKGKATLTADKSSSTAYMELRSLTSEDSAVYFCARSGPITTLVATDYGMDYWGQGTSVTVSS VL: DIVLTQSPASLAVSLGQRATISCRASKSVSTSSYSYMHWYQQKPGQPPKLLIKFASNLESGVPARFSGSGSGTDFTLNIHPVEEEDAATYYCQHSREFPYTFGGGTKLEIK ; MFI = 1050

Data point: 111D10D6G3 (antibody, V domains shown, Mouse hybridoma monoclonal antibody purified on Protein G) VH: QVQLQQPGAELVKPGASVKMSCKASGYTFTRHWITWVKQRPGQGLEWIGDIFPGSGSINYNEKFKSEATLTVEKSSSTAYMQLSSLTSEDSAVYYCARGDVDVWGTGTTVTVSS VL: DIQMTQSPSSLSASLGERVSLTCRASQEIRGYLSWLQQKPNGTIKRLIYAASTLDSGVPKRFSATRSGSDFSLTISSLESEDFADYYCLQYASYPFTFGSGTKLEIK ; MFI = 478
